STUDY SYSTEM: L-lactate dehydrogenase (Plasmodium falciparum (isolate CDC / Honduras)) (UniProt Q27743)
Sequence (Q27743 whole entry, looked up): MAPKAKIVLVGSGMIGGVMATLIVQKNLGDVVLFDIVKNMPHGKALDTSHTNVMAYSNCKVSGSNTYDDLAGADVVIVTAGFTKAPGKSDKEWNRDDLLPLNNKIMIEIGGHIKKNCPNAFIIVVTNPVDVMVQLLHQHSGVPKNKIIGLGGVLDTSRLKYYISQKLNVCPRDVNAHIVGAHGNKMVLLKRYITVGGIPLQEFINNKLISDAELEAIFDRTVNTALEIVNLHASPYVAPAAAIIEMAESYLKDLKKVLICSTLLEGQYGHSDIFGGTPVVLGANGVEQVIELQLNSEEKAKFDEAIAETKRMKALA
ASSAY EXPLANATION: PfLDH activity inhibition – cell lysate, 3D7 strain, counter-screen for P. falciparum growth inhibition project (AID 2304);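 also: 0% = vehicle and 100% = reference inhibitor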
MEASUREMENT PARAMETERS: P. falciparum 3D7 crude extract, LDH APAD/NBT absorbance; at 2 µM; hits give high values
METRIC NAME: inhibition (%)
Provide the reading as a plain figure in %.

1. O=C(NC1CCN(Cc2ccccc2)CC1)c1ccc(-c2nc3cc(Cl)c(F)cc3[nH]2)s1
3

Quick one: inhibition for CC(C)(C)c1ccc(NC(=O)c2cccc(CN3CCCN(Cc4ccsc4)CC3)c2)cc1 ?
-4

Form field: reported inhibition of CC(C)C[C@@H](NC(=O)OC(C)(C)C)C(=O)Nc1ccc(Cc2ccc(NC(=O)[C@@H](CC(C)C)NC(=O)OC(C)(C)C)cc2)cc1
6

I would be grateful if you could share the reported inhibition for COc1ccc(CC2(CO)CCN(Cc3ccc(O)c(Cl)c3)CC2)cc1 .
-2

Item COc1cc(NC(=O)/C=C/c2ccccc2OC(F)(F)F)cc(OCCN2CCC(O)(c3ccccc3)CC2)c1 has what recorded inhibition?
2

What value of inhibition has been recorded for this entry: Cc1cccc(N2CCN(C3CCC(NC(=O)c4cc5ccccc5[nH]4)CC3)CC2)c1C (centres undefined)
-4

Bench note: what inhibition did CN1CCCN(Cc2cccc(-c3cccc(NC(=O)c4ccc(Cl)cc4)c3)c2)CC1 show?
2

Param item = N=C(N)c1ccc(C=CC(=O)NCC(O)CNC(=O)C=Cc2ccc(C(=N)N)cc2)cc1 (centres undefined) ; retrieve measured inhibition.
-1

// returns reported inhibition for input CCOc1cc(C)ccc1N1CCN(CCN2CCC(NC(=O)c3ccc(-c4ccc(C#N)cc4)cc3)CC2)CC1
-1

###

ASSAY EXPLANATION: inhibition of 3D7 malaria parasite growth – strain 3D7 (AID 2306);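 also: 0% = DMSO wells and 100% = chloroquine plus artemisinin control wells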
MEASUREMENT PARAMETERS: P. falciparum 3D7 erythrocytic growth, LDH absorbance, 72 h; at 2 µM; hits give high values
Each entry below carries its recorded growth inhibition.
Use % as the unit, but write only the number.

Here are 3 molecules together with their reported answers.
1) Cc1cccc2[nH]c(-c3ccc(-c4ccc(NC(=O)Nc5ccc(F)c(F)c5F)cc4)s3)nc12
100
2) Cc1cc(OCC2CCN(c3ncc(C(=O)Nc4ccccc4)cc3Cl)CC2)ccc1F
91
3) CCCCCN1CCCC(NS(=O)(=O)c2cccc(C(=O)Nc3cccc(C(F)(F)F)c3)c2)C1 (centres undefined)
86

# lookup: growth inhibition of O=C(Nc1ccc(Cl)c(C(F)(F)F)c1)NC1CCN(CCCCCNC(=O)[C@@H]2C[C@H]2c2ccc(Cl)c(Cl)c2)CC1
100

Endpoint output: growth inhibition of COc1cc(C)nc2ccc(NC(=O)Nc3ccccc3[N+](=O)[O-])cc12 . Value?
101

###

Catalogue of molecules with associated growth inhibition
ASSAY EXPLANATION: antimalarial activity against Dd2 strain (AID 2302);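 also: 0% = DMSO untreated growth and 100% = chloroquine plus artemisinin killed control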
MEASUREMENT PARAMETERS: P. falciparum Dd2 in RBCs, LDH growth readout, 72 h; at 2 µM; hits give high values
Numeric only. Scale: %

1. CCOc1cc2ncnc(Nc3cc(Cl)c(Cl)c(Cl)c3)c2cc1OCC
98
2. Cn1nc(-c2cccc(CN[C@@H]3CCc4ccc(O)cc43)c2)c2cnc(NC3CCCC3)nc21
76
3. O=C(N[C@@H](CC1CCCCC1)C(=O)NC1CCCc2ccccc21)c1ccc(O)c(-c2cccc(C(F)(F)F)c2)c1 (stereo not given in full)
99

Item under review: Cc1ccccc1Nc1nc(Nc2ccccc2)c2ccccc2n1 . Reported growth inhibition?
21

###

STUDY SYSTEM: Calcium-dependent protein kinase 1 (Plasmodium falciparum (isolate 3D7)) (UniProt P62344)
Sequence (P62344 whole entry, looked up): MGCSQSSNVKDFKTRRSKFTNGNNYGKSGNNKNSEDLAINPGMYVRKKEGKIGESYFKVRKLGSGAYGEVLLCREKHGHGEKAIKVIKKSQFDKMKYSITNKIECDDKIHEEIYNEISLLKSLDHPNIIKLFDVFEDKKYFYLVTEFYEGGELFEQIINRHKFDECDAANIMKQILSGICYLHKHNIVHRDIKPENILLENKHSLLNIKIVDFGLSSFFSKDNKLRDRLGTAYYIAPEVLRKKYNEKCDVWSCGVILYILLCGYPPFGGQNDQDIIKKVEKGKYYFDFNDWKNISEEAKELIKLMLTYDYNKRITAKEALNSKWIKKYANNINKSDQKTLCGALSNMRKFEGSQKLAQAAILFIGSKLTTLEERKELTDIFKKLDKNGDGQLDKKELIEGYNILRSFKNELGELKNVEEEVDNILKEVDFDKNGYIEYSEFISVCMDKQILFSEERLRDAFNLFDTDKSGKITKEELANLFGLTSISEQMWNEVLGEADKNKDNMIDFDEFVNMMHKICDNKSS
ASSAY EXPLANATION: PfCDPK1 kinase inhibitors, biochemical, TCAMS library (AID 1159585);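 also: inhibitors leave more ATP so luminescence rises with inhibition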
MEASUREMENT PARAMETERS: recombinant PfCDPK1, Kinase-Glo ATP depletion luminescence
Measured potencies and affinities stand elsewhere. The source made the active and inactive calls. The limit is not given here; nearly all actives have IC50 up to about 0.98 µM.
METRIC NAME: outcome

1. O=C(CN1CCC(NCc2cnc(-c3ccc(Cl)cc3)[nH]2)CC1)N1CCc2ccccc21
inactive
2. COc1ccc(C(C(=O)NC2CCN(C[C@H](O)c3ccnc4ccc(OC)cc34)CC2)N2CCN(c3ccc(F)cc3)CC2)cc1 (some centres undefined)
inactive
3. Cc1nc2c(Nc3nc(-c4ccncc4)cs3)ncnc2n1-c1ccccc1Cl
inactive
4. O=C(/C=C/c1ccc(Cl)c(Cl)c1)N1CCC(CN2CCC(c3c[nH]c4ncccc34)CC2)CC1
inactive
5. CN(C)c1ccc(C2(c3ccccc3)N=C(N)N(CCCc3ccccc3)C2=O)cc1 (centres undefined)
inactive

Return reported outcome; argument: Cc1cc(NN=Cc2ccc(F)cc2)c2cccc(C)c2n1
inactive

outcome lookup needed for N#Cc1cccc(C(=O)Nc2ccc(-c3cccc(CN4CCCC4)c3)cc2)c1 , thanks.
inactive

Please report the recorded outcome for NC(=O)c1cccc(CNCc2ccc(-c3cccc(-c4nc5ccccc5[nH]4)c3)cc2)c1 .
inactive

Please give the measured outcome for this compound: CNCCNCc1ccc(-c2ccc(-c3nc4c(C)cccc4[nH]3)cc2)cc1
inactive

###

Entries and their measured growth inhibition follow.
ASSAY EXPLANATION: inhibition of 3D7 malaria parasite growth – strain 3D7 (AID 2306);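 also: 0% = DMSO wells and 100% = chloroquine plus artemisinin control wells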
MEASUREMENT PARAMETERS: P. falciparum 3D7 erythrocytic growth, LDH absorbance, 72 h; at 2 µM; hits give high values
Give the value in % but do not write % after it.

// known answers, use as guide
1) N#Cc1ccc(N(CCOC(=O)c2ccccc2)Cc2ccccc2C(F)(F)F)cc1C(F)(F)F
92
2) Cc1onc(-c2ccccc2)c1-c1nc(NCc2ccccc2Cl)no1
99
3) CCc1nc(N)nc(N)c1CCCOc1ccccc1Cl
92
4) NC(Cc1cccc(I)c1)C(=O)NCC1CCCO1 (stereo not given)
98

What value of growth inhibition has been recorded for this entry: Cc1cccc2[nH]c(-c3cccc(-c4cccc(NC(=O)c5cnn6cccnc56)c4)c3)nc12
101

Can you look up the measured growth inhibition of O=C(NCCc1ccccc1)N(Cc1cccc(-c2ccc(CNC3CCCC3)cc2)c1)C1CCN(Cc2ccccc2)CC1 for me?
98

Give the measured growth inhibition of Cn1ncc2ccc(Nc3nccc(-c4ccc5c(c4)c(N)nn5C)n3)cc21 .
99

// growth inhibition lookup, key: CC(C)c1ccc(NC(=S)NN=Cc2ccccn2)cc1
100

Suppose we examine the compound CC1CCCCN1CCCNC(=O)c1cccc(-c2cc3cc(Cl)c(Cl)cc3[nH]2)c1 (stereo not given) ; what growth inhibition value has been reported?
94

Which growth inhibition reading was recorded for the compound CN1CCN(Cc2ccc(OCc3cccc(COc4ccc(CN5CCN(C)CC5)cc4I)c3)c(I)c2)CC1 ?
92

###

STUDY SYSTEM: L-lactate dehydrogenase (Plasmodium falciparum (isolate CDC / Honduras))
ASSAY EXPLANATION: PfLDH activity inhibition – cell lysate, 3D7 strain, counter-screen for P. falciparum growth inhibition project (AID 2304);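 also: 0% = vehicle and 100% = reference inhibitor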
MEASUREMENT PARAMETERS: P. falciparum 3D7 crude extract, LDH APAD/NBT absorbance; at 2 µM; hits give high values
METRIC NAME: inhibition (%)
Response body: numeric value in %, unit text excluded.

Below, each entry is followed by its recorded inhibition result.
1) CCCC(C)Nc1nc(C)cc(N[C@@H](Cc2ccccc2)C(=O)NCc2cccc(F)c2)n1 (stereo not given in full)
-2
2) CCN(CCCN1CCCCC1)c1nc(C)cc(Nc2ccc(Cl)cc2)n1
3
3) Cc1nc(-c2cccc(Nc3nccc(NCC(O)c4ccccc4)n3)c2)cs1 (stereo not given)
3

So what's the measured inhibition for this one? COc1ccc(C(=O)N2CCC3(CC2)C(=O)N(CC(=O)NC2CCCCC2)CN3c2ccccc2)c(OC)c1
3

Could you tell me which inhibition is on file for Cc1[nH]c(C)c(-c2ccc(OCc3ccccc3C(F)(F)F)nc2)c(=O)c1Br ?
-6

Bench note: what inhibition did CN1CCC(NCc2cccc(-c3ccc(S(=O)(=O)NCCN4CCCC4)s3)c2)CC1 show?
-5

For the molecule shown here, O=C(Nc1ccc(-c2nc3ccccc3[nH]2)cc1)c1ccc(S(=O)(=O)N2CCCCCC2)cc1 , give the reported inhibition.
-6

Look up inhibition for this molecule: CN(Cc1ccccc1)C(=O)c1nn(CCCN2CCC(N3CCCC3)CC2)cc1-c1ccc(Cl)c(Cl)c1
0

Please look up its inhibition: COc1cccc2sc(Nc3nc(-c4ccccn4)cs3)nc12
4

Which inhibition value belongs to Cc1cc(NN=Cc2ccccc2Cl)c2ccccc2n1 ?
2

###

Quick reference: inhibition of the listed items.
STUDY SYSTEM: L-lactate dehydrogenase (Plasmodium falciparum (isolate CDC / Honduras))
ASSAY EXPLANATION: PfLDH activity inhibition – cell lysate, 3D7 strain, counter-screen for P. falciparum growth inhibition project (AID 2304);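 also: 0% = vehicle and 100% = reference inhibitor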
MEASUREMENT PARAMETERS: P. falciparum 3D7 crude extract, LDH APAD/NBT absorbance; at 2 µM; hits give high values
Express the result in % but write the number alone.

Value lookup for inhibition; key = CCOc1ccc2c(NN=Cc3cccc([N+](=O)[O-])c3)cc(C)nc2c1
3

Values compiled from PubChem BioAssay.
